System: SF-268
Assay: NCI tumour cell line growth inhibition, 48 h
Calls of active or inactive are those of the source. No stated cut-off is given here; in the data, active = GI50 up to about 1.1 µM and inactive = higher.
Reported GI50 by item:

{"MOLECULE": "CC1(C)C(/C=N\\O)=[N+]([O-])C(C)(C)N1O", "GI50": "> 100 µM (inactive)"}
{"MOLECULE": "COc1ccc(C(=C2C=CC=C2)c2ccc(OC)cc2)cc1", "GI50": "55.7 µM (inactive)"}
{"MOLECULE": "COC(=O)C1C(OS(=O)(=O)O)CCC2CN3CCc4c([nH]c5ccccc45)C3CC21 (stereo not given)", "GI50": "> 100 µM (inactive)"}
{"MOLECULE": "CC(C)CCC[C@@H](C)C1CCC2[C@@H]3CCC4C[C@@H](NS(C)(=O)=O)CC[C@]4(C)C3CC[C@@]21C (stereo not given in full)", "GI50": "> 100 µM (inactive)"}
{"MOLECULE": "CC1(C)OC[C@@H](C[C@H](O)COCc2ccccc2)O1", "GI50": "> 100 µM (inactive)"}

Provide only the value of recorded GI50 for Clc1cc(OC2C3CC4CC(C3)CC2C4)nc(Cl)n1 (stereo not given)
19.2 µM (inactive)

Provide only the value of recorded GI50 for O=c1[nH]c(=O)n(C2CC(O)C(CO)O2)cc1C#Cc1cc(F)cc(F)c1 (stereo not given)
> 100 µM (inactive)

Provide only the value of recorded GI50 for COc1ccc2c(c1)c1c(n2CCN2CCCCC2)-c2ccccc2CC1
13.8 µM (inactive)

Provide only the value of recorded GI50 for COc1ccc([C@H]2[C@H](C)C3=Nc4ccccc4CN32)cc1
98.9 µM (inactive)

Provide only the value of recorded GI50 for O=c1oc(-c2ccccc2)c(-c2ccccc2)n1-c1ccc(Br)cc1
55 µM (inactive)

====

Test system: OVCAR-5
Assay: NCI tumour cell line growth inhibition, 48 h
Activity calls are given as the source filed them. Rule as the data show it: active = GI50 up to about 1.1 µM and inactive = higher.
Reported GI50 by item:

Take a look at these entries with their results.
{"COMPOUND": "CCO/C(Cc1ccc(Cl)cc1)=N/NC(N)=S", "GI50": "> 100 µM (inactive)"}
{"COMPOUND": "CC(C)(C)OC(=O)Nc1cc(-c2ccccc2)co1", "GI50": "> 100 µM (inactive)"}
{"COMPOUND": "COc1ccc2cc1Oc1ccc(cc1)CC1c3cc4c(cc3CCN1C)Oc1c(OC)cc3c(c1O4)C(C2)N(C)CC3 (stereo not given)", "GI50": "13.6 µM (inactive)"}

Provide only the value of recorded GI50 for C#C[C@]1(O)CC[C@H]2[C@@H]3CCC4=C/C(=N/CCOC(=O)c5cccc6c(=O)c7ccccc7[nH]c56)CC[C@@H]4[C@H]3CC[C@@]21C
> 100 µM (inactive)

Provide only the value of recorded GI50 for O=c1[nH]c(=O)n(C2CC(O)C(CO)O2)cc1C#Cc1cc(F)cc(F)c1 (stereo not given)
> 100 µM (inactive)

Provide only the value of recorded GI50 for CN(C)CCCC12CCCCC1=Nc1ccccc12 (stereo not given)
> 100 µM (inactive)

Provide only the value of recorded GI50 for C1COCCOP2(N3CC3)=NP(N3CC3)(=NP(N3CC3)(N3CC3)=N2)OCCOCCO1 (stereo not given)
> 100 µM (inactive)

Provide only the value of recorded GI50 for CC(=O)NC(CCC(=O)C=[N+]=[N-])C(=O)O (stereo not given)
> 100 µM (inactive)

Provide only the value of recorded GI50 for CCOc1ccc(NCC2CC/C(=C\c3ccccc3OC)C2=O)cc1 (stereo not given)
18.5 µM (inactive)

Provide only the value of recorded GI50 for C=C1C(=O)C=C2C=C3C(=O)C(C)(C)C[C@]3(O)C12C (stereo not given in full)
9.55 µM (inactive)

====

Tested on: SK-MEL-28
Test: NCI tumour cell line growth inhibition, 48 h
The source made the active and inactive calls. Cut-off read from the data, not from the text of the source: active = GI50 up to about 1.1 µM and inactive = higher.
READOUT TYPE: GI50

Take a look at these entries with their results.
{"MOLECULE": "COc1ccc(/N=N/c2ccc3oc(=O)c(C(=O)Nc4ccc(Cl)cc4)cc3c2)cc1", "READOUT TYPE": "GI50", "RESULT": "> 10 µM (inactive)"}
{"MOLECULE": "Clc1cc(OC2C3CC4CC(C3)CC2C4)nc(Cl)n1 (stereo not given)", "READOUT TYPE": "GI50", "RESULT": "15 µM (inactive)"}
{"MOLECULE": "O=C(Nc1c(Cl)cc([N+](=O)[O-])cc1Cl)/C(=N\\Nc1cccc(Cl)c1)c1c(O)c2ccccc2oc1=O", "READOUT TYPE": "GI50", "RESULT": "> 100 µM (inactive)"}
{"MOLECULE": "[O-][S+]1Cc2ccccc2CS1 (stereo not given)", "READOUT TYPE": "GI50", "RESULT": "14.9 µM (inactive)"}
{"MOLECULE": "Cc1[nH]c(=O)[nH]c(=S)c1C(=O)NC(C)(CO)CO", "READOUT TYPE": "GI50", "RESULT": "> 100 µM (inactive)"}
{"MOLECULE": "O=C(OCCNC(=O)N1CC1)OCCNC(=O)N1CC1", "READOUT TYPE": "GI50", "RESULT": "> 10 µM (inactive)"}
{"MOLECULE": "C/C=C1\\C(=O)O[C@H]2C/C(C)=C/CC/C(C)=C/CC[C@@]3(C)O[C@@H]3C[C@@H]12", "READOUT TYPE": "GI50", "RESULT": "> 100 µM (inactive)"}
{"MOLECULE": "O=c1c(C(c2ccc3ccccc3c2)c2c(O)oc3ccccc3c2=O)c(O)oc2ccccc12", "READOUT TYPE": "GI50", "RESULT": "28.6 µM (inactive)"}
{"MOLECULE": "O=C1C(=Cc2ccc(O)cc2)N=C(c2ccccc2)N1n1c(-c2ccccc2)nc2ccccc2c1=O", "READOUT TYPE": "GI50", "RESULT": "88.9 µM (inactive)"}

Provide only the value of recorded GI50 for CCc1cccc(C(C)C)c1C1C(=O)C(=O)N(c2nc3ccccc3s2)C(=O)C1=O
> 100 µM (inactive)

====

Tested on: NCI-H226
Experiment: NCI tumour cell line growth inhibition, 48 h
The source made the active and inactive calls. No stated cut-off is given here; in the data, active = GI50 up to about 1.1 µM and inactive = higher.
Reported GI50 by item:

Take a look at these entries with their results.
{"COMPOUND": "CCOC(=O)C1C=C1C(C)(C)O (stereo unspecified)", "SYSTEM": "NCI-H226", "GI50": "> 10 µM (inactive)"}
{"COMPOUND": "O=C(CCN1CCCCC1)c1csc2ccccc12", "SYSTEM": "NCI-H226", "GI50": "> 100 µM (inactive)"}
{"COMPOUND": "CC(=O)OC[C@@]1(C)[C@@H]2[C@@H]3[C@@]4(CO[C@]3(C)C(=O)[C@@]3(OC(C)=O)C[C@H](C)[C@H](OC(C)=O)[C@@H]3[C@H]4OC(C)=O)[C@H](OC(=O)c3ccccc3)C[C@@H]21", "SYSTEM": "NCI-H226", "GI50": "> 100 µM (inactive)"}

State, for NCI-H226, measured GI50 of the compound listed here: C=C1C(=O)C=C2C=C3C(=O)C(C)(C)C[C@]3(O)C12C (stereo partly specified)
22.1 µM (inactive)

State, for NCI-H226, measured GI50 of the compound listed here: C#C[C@@]1(O)CCCC2=CC(=O)C[C@]21C
> 100 µM (inactive)

State, for NCI-H226, measured GI50 of the compound listed here: CC(=O)OCc1cccc(O)c1C(=O)CCC=C(C)C
> 100 µM (inactive)

====

System: HOP-62
Test: NCI tumour cell line growth inhibition, 48 h
The source made the active and inactive calls. No stated cut-off is given here; in the data, active = GI50 up to about 1.1 µM and inactive = higher.
READOUT TYPE: GI50

{"MOLECULE": "O=Nc1ccc(O)c2ncccc12", "SYSTEM": "HOP-62", "GI50": "2.8 µM (inactive)"}
{"MOLECULE": "O=C(CC1(O)C(=O)Nc2c(Cl)ccc(Cl)c21)c1ccc(Cl)cc1Cl (stereo unspecified)", "SYSTEM": "HOP-62", "GI50": "24 µM (inactive)"}
{"MOLECULE": "CCCN(CCC)C1=Nc2ccccc2-n2cnnc2C1", "SYSTEM": "HOP-62", "GI50": "> 100 µM (inactive)"}
{"MOLECULE": "CC(C)(C)OC(=O)N1C/C=C\\C(=O)C2(OCCO2)c2ccccc21", "SYSTEM": "HOP-62", "GI50": "48.9 µM (inactive)"}
{"MOLECULE": "COc1cc(Cc2cnc(N)nc2N)cc(OC)c1OCCCNc1ccc([N+](=O)[O-])cc1", "SYSTEM": "HOP-62", "GI50": "13.6 µM (inactive)"}

Provide only the value of recorded GI50 for CCOC(=O)CCC(NC(=O)N1CCN(c2c(C)nc(C)nc2O)CC1)C(=O)OCC (stereo unspecified)
> 100 µM (inactive)
